# experimental_target: T1, RSV F protein (C-terminal truncated F protein secreted from a recombinant baculovirus) (respiratory syncytial virus (RSV), UniProt P03420 26-524)
# T1 construct: also called F antigen; RSV F antigen
# T1 sequence (P03420 26-109, chain 1 of 2): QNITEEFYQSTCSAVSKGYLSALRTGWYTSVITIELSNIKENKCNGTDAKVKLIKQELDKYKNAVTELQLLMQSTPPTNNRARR
# T1 sequence (P03420 137-524, chain 2 of 2): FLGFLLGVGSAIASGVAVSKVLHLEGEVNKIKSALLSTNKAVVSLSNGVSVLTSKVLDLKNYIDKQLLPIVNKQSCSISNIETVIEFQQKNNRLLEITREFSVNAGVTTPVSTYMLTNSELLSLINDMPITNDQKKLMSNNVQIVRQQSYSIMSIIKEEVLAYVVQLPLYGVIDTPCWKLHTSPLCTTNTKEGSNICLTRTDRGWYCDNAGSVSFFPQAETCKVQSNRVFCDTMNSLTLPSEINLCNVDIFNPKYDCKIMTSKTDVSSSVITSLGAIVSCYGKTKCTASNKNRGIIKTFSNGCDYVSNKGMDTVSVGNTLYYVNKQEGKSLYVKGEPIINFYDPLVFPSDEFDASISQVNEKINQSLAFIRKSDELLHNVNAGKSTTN
# assay_name: ELISA titration of antibody on RSV F antigen, O.D. 560
parameter_measured: EC50 (read off the curve)

IN: Returns the measured EC50 (read off the curve) for the input binder. Input: clone 6 (PFYF) (antibody, V domains shown) VH: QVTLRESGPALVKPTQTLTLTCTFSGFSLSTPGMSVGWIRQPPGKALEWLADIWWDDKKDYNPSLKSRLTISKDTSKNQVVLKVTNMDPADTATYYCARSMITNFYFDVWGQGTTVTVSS VL: DIQMTQSPSTLSASVGDRVTITCSASSSVGYMHWYQQKPGKAPKLLIYDTYKLASGVPSRFSGSGSGTEFTLTISSLQPDDFATYYCFQGSFYPFTFGGGTKVEIK
OUT: ~0.02 µg/mL

Source listed as patent US20100266614A1.
